Tested on: HT-29 (Colorectal Carcinoma);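 further: after 72 h of two-drug dosing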
Assay: Bliss excess, mean over the matrix (fraction); higher = more synergy
Would you kindly list Bliss excess for each of these molecules?
Form: value (number only, do not type unit).

Bliss excess of NC1(C(=O)N[C@@H](CCO)c2ccc(Cl)cc2)CCN(c2ncnc3[nH]ccc23)CC1 [Capivasertib] + CC(=O)c1c(C)c2cnc(Nc3ccc(N4CCNCC4)cn3)nc2n(C2CCCC2)c1=O [Palbociclib] (first compound max 10 µM, 7x7, partner max 10 µM) , assay on HT-29 (Colorectal Carcinoma), is 0.0086

Bliss excess of CS(=O)(=O)CCNCc1ccc(-c2ccc3ncnc(Nc4ccc(OCc5cccc(F)c5)c(Cl)c4)c3c2)o1 [Lapatinib] + NC1(c2ccc(-c3nc4ccn5c(=O)[nH]nc5c4cc3-c3ccccc3)cc2)CCC1 [MK-2206] (first compound max 10 µM, 7x7, partner max 10 µM) , assay on HT-29 (Colorectal Carcinoma), is 0.0084

Bliss excess of COc1cccc(OCCCN)c1-c1cc(Nc2cnc(C#N)cn2)n[nH]1 [Prexasertib] + Cc1cc2ncnn2cc1Nc1ncc2c(n1)n(C1CCOCC1)c(=O)n2C [AZD7648] (first compound max 1 µM, 7x7, partner max 10 µM) , assay on HT-29 (Colorectal Carcinoma), is -0.0377

Bliss excess of COc1nnc2ccc(N3CCC(c4ccc(OCCN5CCN(C)C(=O)[C@H]5C)cc4)CC3)nn12 [AZD5153] + CN(CC[C@H](CSC1=CC=CC=C1)NC2=C(C=C(C=C2)S(=O)(=O)NC(=O)C3=CC=C(C=C3)N4CCC(CC4)[C@H](C5=CC=CC=C5C6=CC=C(C=C6)Cl)O)S(=O)(=O)C(F)(F)F)CCO [AZD4320] (first compound max 1 µM, 7x7, partner max 1 µM) , assay on HT-29 (Colorectal Carcinoma), is -0.0111

Bliss excess of Cc1nc(Nc2ncc(C(=O)Nc3c(C)cccc3Cl)s2)cc(N2CCN(CCO)CC2)n1 [Dasatinib] + CC(=O)Nc1cccc(-n2c(=O)n(C3CC3)c(=O)c3c(Nc4ccc(I)cc4F)n(C)c(=O)c(C)c32)c1 [Trametinib] (first compound max 2 µM, 7x7, partner max 1 µM) , assay on HT-29 (Colorectal Carcinoma), is 0.0984

Bliss excess of COc1nnc2ccc(N3CCC(c4ccc(OCCN5CCN(C)C(=O)[C@H]5C)cc4)CC3)nn12 [AZD5153] + Cn1cnc2c(F)c(Nc3ccc(Br)cc3Cl)c(C(=O)NOCCO)cc21 [Selumetinib] (first compound max 1 µM, 7x7, partner max 10 µM) , assay on HT-29 (Colorectal Carcinoma), is -0.0281

Bliss excess of CCc1c2c(nc3ccc(O)cc13)-c1cc3c(c(=O)n1C2)COC(=O)[C@]3(O)CC [SN-38] + CN(C)CCCOc1ccc(-c2ccc3ncc4c(c3c2)n(C2CCOCC2)c(=O)n4C)cn1 [AZD0156] (first compound max 0.3 µM, 7x7, partner max 1 µM) , assay on HT-29 (Colorectal Carcinoma), is 0.0693
